Measured on: T1, recombinant human IL-6 (human, UniProt P05231 30-212, labeled with radioactive iodine)
T1 construct: Labeled probe in solution, added to wells that carry the synthetic peptides; also called IL-6 ligand; Interleukin-6
Test: radioiodinated IL-6 on peptide array; experiment D11-D57
Assign log10(Counts/minute bound) to each entry below.
Use the decimal logarithm of Counts/minute bound (counts/minute).

Solved entries (count: 4):
Binder	Reported property	Test value
LAFGTLLCIAIVLRFKKT [Peptide D30]	log10(Counts/minute bound)	4.36
GGSLAFGTLLCIAIVLRAKKT (alanine-scan variant of the domain IV 21-mer) [Peptide D47]	log10(Counts/minute bound)	4.32
GGSLAFGTLLCIAAVLRFKKT (alanine-scan variant of the domain IV 21-mer) [Peptide D51]	log10(Counts/minute bound)	4.45
GGSLAFGTLLCIA [Peptide D19]	log10(Counts/minute bound)	3.06

Task: Report measured log10(Counts/minute bound); entry is GGSLAFGTLLCIAIVARFKKT (alanine-scan variant of the domain IV 21-mer) [Peptide D49]
Output: 4.34
